# reported TGI; entries follow
system: CAKI-1 renal; experiment: NCI tumour cell line growth inhibition, 48 h

Answered cases to consult:
S=C(Nc1ccc(Cl)cc1)SC1CCCCC1
> 100 µM
Cc1no[n+]([O-])c1/C=N/NS(=O)(=O)c1ccccc1
> 100 µM
O=c1[nH]cc(CO)c(=O)[nH]1
> 100 µM

Inquiry: Give TGI for O=[P+](O)c1cccs1
Reply text: > 100 µM

Inquiry: Consider the compound O=CN(O)CC(=O)O.[Ni] and give its recorded TGI.
Reply text: > 100 µM

Inquiry: State its TGI for this compound: COc1ccc(N2C(=O)C(C#N)=C(SC)C(C#N)C2=O)cc1 (stereo unspecified)
Reply text: > 100 µM

* * *

Consider the following compounds and their measured GI50 readings.
test system: RXF 393 renal; test: NCI tumour cell line growth inhibition, 48 h

Worked examples follow.
Nc1ncnc2c1nc(N)n2C1OC(CO)C(O)C1O (stereo not given)
1450 nM
Cc1ccc(C2NC(=S)N3C(c4ccc(C)cc4)NC(=S)N23)cc1 (stereo not given)
3270 nM
N#Cc1ccc(N2Cc3cc(Cl)ccc3OC3=C2C(=O)N(Cc2ccc(F)cc2)C3=O)cc1
481 nM
c1cc2ccc3cc2cc1CNCCOCCNCc1ccc2ccc(cc2c1)CNCCOCCNC3
> 100000 nM

Read the next record carefully.
Inquiry: Write down measured GI50 (RXF 393 renal) for this compound. O=C(N/N=C/c1ccncc1)c1ccc(C(F)(F)F)nc1Nc1cccc(C(F)(F)F)c1
Reply text: 1510 nM

* * *

system: SNB-19 CNS; experiment: NCI tumour cell line growth inhibition, 48 h
QUANTITY KIND: TGI (µM)
Value expressed in µM; do not type the unit.

Cc1ccc(S(=O)(=O)C(C#N)c2nc3ccccc3nc2N2CCOCC2)cc1 (stereo unspecified)
95.6
COc1ccc(Oc2nc(Nc3ccc(N4CCOCC4)cc3)ncc2NC(=O)Nc2cc(OC)cc(OC)c2)cc1
28.8

Inquiry: For the compound CCOC(=O)C1=C(C)NC(C)=C(C(=O)OCC)C1c1cc(Br)c(O)c(OC)c1 , give its measured TGI value.
Reply text: 16.8

* * *

system: M14 melanoma; assay: NCI tumour cell line growth inhibition, 48 h
Reported TGI values for the following molecules.

O=[N+]([O-])c1ccc(Oc2cccc(C(F)(F)F)c2)c([N+](=O)[O-])c1
14 µM
CC(C)[Si](Oc1cc2c3c(ccc2c(O)c1[C@@H](C)CO[Si](C)(C)C(C)(C)C)C(C)(C)CCC3)(C(C)C)C(C)C
> 100 µM
COC(=O)c1c2c(c(C)[n+]([O-])c1C)C(=O)C=C(NCc1ccc(Br)cc1)C2=O
1.04 µM

Inquiry: Determine reported TGI for CC(=O)NC1CCCN(O)C(=O)/C=C(/C)CCOC(=O)C(NC(C)=O)CCCN(O)C(=O)/C=C(/C)CCOC(=O)C(NC(C)=O)CCCN(O)C(=O)/C=C(/C)CCOC1=O.[Fe] (centres undefined) ; test system: M14 melanoma.
Reply text: > 100 µM

Inquiry: // fetch TGI; item: CCSC1=C(C#N)C2(CCCCC2)C2=C(CC(C)(C)CC2=O)N1 ; system: M14 melanoma
Reply text: > 100 µM

* * *

system: MDA-MB-231 breast; test: NCI tumour cell line growth inhibition, 48 h
QUANTITY KIND: GI50

Below are worked cases with known answers.
Cc1cc(NS(=O)(=O)c2ccc(NC(=O)COc3ccc(-c4cc5ccccc5[nH]4)cc3)cc2)no1
1660 nM
O=S1CCN(Cc2ccc(-c3ccc4ncnc(Nc5ccc(OCc6ccccc6)c(F)c5)c4c3)o2)CC1
7070 nM

Could you now consider this next molecule?
Inquiry: Query GI50 for CS(=O)/C(C#N)=C\C=C\c1cccc(Cl)c1 (stereo unspecified)
Reply text: 2730 nM

* * *

system: KM12 colon; assay: NCI tumour cell line growth inhibition, 48 h
*1 amine or outer side, *2 acyl side, *3 side chain or, on linkers, in order; H or OH if unused. Where a SMILES comes first, the peptide text is derived from it. Bridges are numbered along the chain shown (N, C = ends). Roman numbers before positions name the chains, in order. X23 = CCCCCCCCCCCCCCC(=O)NC(CCCCN[*:2])C(=O)CN1CCCC1C(=O)[*:1]
QUANTITY KIND: TGI (µM)
Enter your answer as a number in µM; do not include the unit.

CCCCCCCCCCCCCCC(=O)NC(CCCCNC(=O)C1CCCN1C(=O)C(CCCCN)NC(=O)C(CCCCN)NC(=O)C(CCCCN)NC(=O)C(CCCNC(=N)N)NC(=O)C(CCCCN)NC(=O)C(N)C(C)C)C(=O)CN1CCCC1C(=O)NCC(=O)NC(Cc1ccccc1)C(=O)N1CCCC1C(=O)NC(CO)C(=O)NC(Cc1ccc(O)cc1)C(=O)NC(CCCCN)C(=O)NC(CC(C)C)C(=O)NC(CCCNC(=N)N)C(=O)N1CCCC1C(=O)NCC(N)=O (stereo not given) (I: GFPSYKLRPG-NH2 / II: H-VKRKKKP; linker I:N-II:C via X23; configuration not given here)
3.85

Please find the next molecule below.
Inquiry: For the molecule COc1ccc(-c2nnc(Nc3nc(O)c(C4=c5cc(OC(F)(F)F)ccc5=NC4=O)s3)o2)cc1 , give its measured TGI value.
Reply text: 19.6

* * *

tested on: SN12C renal; assay: NCI tumour cell line growth inhibition, 48 h; in the data active = GI50 below about 0.43 µM; inactive = the rest
Just give me one of these, please: true (1) = active, false (0) = inactive

Inquiry: Check the results log: what was the call for [CH3][Sn]([CH3])([CH3])[O]C(=O)C(O)c1ccccc1 (stereo not given) ?
Reply text: false (0)

Inquiry: Which result was noted for this molecule in the test: COc1cc(-c2nccc3[nH]c(-c4cccc5[nH]ccc45)nc23)cc(OC)c1OC
Reply text: true (1)

Inquiry: // return assay outcome for Nc1cccc2c1CN(C1CCC(=O)NC1=O)C2=O (stereo not given)
Reply text: false (0)

Inquiry: Hey, what did the test say about CC(=O)Nc1cc(C(c2ccccc2)c2ccccc2)cc(C(c2ccccc2)c2ccccc2)c1C ?
Reply text: false (0)

Inquiry: What did this assay record as the result for Cc1ccc(-c2c3c(N)nc(-c4ccncc4)nc3nc3c2c(C)nn3-c2ccccc2)cc1 ?
Reply text: false (0)

Inquiry: Dear all, I need the recorded test outcome for O=C(N/N=C/c1ccncc1)c1ccc(C(F)(F)F)nc1Nc1cccc(C(F)(F)F)c1 , thank you.
Reply text: false (0)

Inquiry: Lab log entry: CCOC(=O)c1c(C(F)(F)F)n([O-])c2ccc(Cl)cc2[n+]1=O — outcome as called in the assay?
Reply text: false (0)

* * *

test system: SNB-75 CNS; assay: NCI tumour cell line growth inhibition, 48 h
QUANTITY KIND: GI50

O=C1NC(=O)C(N2CCc3ccccc32)=C1c1ccc(Cl)cc1
> 25 µM
O=Cc1c[nH]c2ccc(-c3csc4ccccc34)cc12
1.25 µM
CC(=O)Nc1c(I)c(C(=O)O)c(I)c(N(C)C(C)=O)c1I
> 100 µM
CCCCCCCCn1ccc2cc(NC(=O)Cn3cc(CN4CCC(C)CC4)nn3)ccc21
1.48 µM
O=[N+]([O-])c1ccc(Oc2cccc(C(F)(F)F)c2)c([N+](=O)[O-])c1
5.11 µM

# context switch: different compound, same GI50
Inquiry: Indicate its recorded GI50; the compound in question is CCc1ccc(Oc2nccc(-c3c(-c4ccc(F)cc4)ncn3C3CCNCC3)n2)cc1
Reply text: 3.58 µM

* * *

system: OVCAR-8 ovarian; experiment: NCI tumour cell line growth inhibition, 48 h
TGI below 50 µM gives criterion not met; TGI at or above it gives criterion met.

Worked set:
CN(C)CCCNC(=O)c1cccc2nc3ccccc3nc12
criterion met
O=[N+]([O-])c1ccc(Oc2cccc(C(F)(F)F)c2)c([N+](=O)[O-])c1
criterion not met
O=C(/C=C/c1cc(F)ccc1F)OCCc1ccccc1
criterion met
Cc1cc(O)c2cc3c(O)c(O)ccc3cc2c1
criterion not met

Inquiry: Item C=CCC1(O)C(=O)OC2C(O)COC21O (stereo unspecified) with TGI of 50 µM or above?
Reply text: criterion met

Inquiry: Would you say CC1C2CC(CC2O)C1(C)C (stereo unspecified) shows TGI at minimum 50 µM?
Reply text: criterion met

* * *

test system: IGROV1 ovarian; assay: NCI tumour cell line growth inhibition, 48 h
QUANTITY KIND: TGI

COC(=O)C(=O)c1cc2ccccc2n1S(=O)(=O)c1ccccc1
> 100 µM
COc1ccc(C2=NNC(c3cc(Cc4ccc(O)c(C5CC(c6ccc(OC)cc6)=NN5)c4)ccc3O)C2)cc1 (centres undefined)
> 100 µM
COc1cc2c(cc1OCc1ccccc1)N=C[C@@H]1C[C@@H](F)CN1C2=O
0.411 µM
C=C1C(=O)O[C@H]2[C@H]1CC/C(COC(=O)c1cccc3ccccc13)=C\CC[C@@]1(C)O[C@@H]21
2.79 µM
c1ccc2c(c1)ncn2CCn1ccnc1
> 100 µM

Inquiry: Please tell me the measured TGI for O=C(Cc1nc2ccc(C(=O)c3ccccc3)cc2[nH]c1=O)C(=O)Nc1ccc(C(F)(F)F)cc1[N+](=O)[O-] ; system: IGROV1 ovarian.
Reply text: > 100 µM

Inquiry: Output reported TGI of the molecule C=CC(Br)(CBr)CCC(Br)C(C)(C)Br (centres undefined) on IGROV1 ovarian.
Reply text: 28.5 µM

Inquiry: Report TGI on IGROV1 ovarian for this entry: O=C(NCCSSCCNC(=O)/C(Cc1ccc(O)c(Br)c1)=N/O)/C(Cc1ccc(O)c(Br)c1)=N/O
Reply text: 7.15 µM

Inquiry: Enter recorded TGI with IGROV1 ovarian for CC(C)(C)OC(=O)N(CCCCNC(=O)c1ccccc1)CCCNC(=O)c1ccccc1 here.
Reply text: > 100 µM

Inquiry: Give reported TGI for O=CNNC(=O)CSc1nc2ccc(I)cc2c(=O)n1Cc1ccccc1 (IGROV1 ovarian)
Reply text: > 100 µM

Inquiry: State the measured TGI (IGROV1 ovarian) of Cc1cc(CN(Cc2ccccc2)Cc2nc3ccccc3[nH]2)c(O)c(CN(Cc2nc3ccccc3[nH]2)Cc2nc3ccccc3[nH]2)c1
Reply text: > 93.2 µM

Inquiry: State measured TGI of the molecule CC(=O)NC1CCCN(O)C(=O)/C=C(/C)CCOC(=O)C(NC(C)=O)CCCN(O)C(=O)/C=C(/C)CCOC(=O)C(NC(C)=O)CCCN(O)C(=O)/C=C(/C)CCOC1=O.[Fe] (centres undefined) with IGROV1 ovarian.
Reply text: > 100 µM

Inquiry: Please look at CCOP(=O)(CCN1CCN(CCCCCOc2cc3c(cc2OC)C(=O)N2CCC[C@H]2C=N3)CC1)OCC and tell me its recorded TGI on IGROV1 ovarian.
Reply text: 18.7 µM

Inquiry: Report its TGI with IGROV1 ovarian as the test system: CC(=O)C1=C(C)N(c2ccc(C)cc2)C2(O)C=CC(=O)C3=C(O)c4ccccc4C(=O)C312 (centres undefined)
Reply text: > 100 µM

Inquiry: Report value only: TGI, IGROV1 ovarian, Cc1ccc(NC(C(=O)c2ccccc2)c2ccccc2)cc1 (centres undefined)
Reply text: 22.6 µM

Cited source: PubChem BioAssay (NCI)
